system: 5-hydroxytryptamine receptor 6 (Homo sapiens, UniProt P50406)
Sequence (P50406 whole entry): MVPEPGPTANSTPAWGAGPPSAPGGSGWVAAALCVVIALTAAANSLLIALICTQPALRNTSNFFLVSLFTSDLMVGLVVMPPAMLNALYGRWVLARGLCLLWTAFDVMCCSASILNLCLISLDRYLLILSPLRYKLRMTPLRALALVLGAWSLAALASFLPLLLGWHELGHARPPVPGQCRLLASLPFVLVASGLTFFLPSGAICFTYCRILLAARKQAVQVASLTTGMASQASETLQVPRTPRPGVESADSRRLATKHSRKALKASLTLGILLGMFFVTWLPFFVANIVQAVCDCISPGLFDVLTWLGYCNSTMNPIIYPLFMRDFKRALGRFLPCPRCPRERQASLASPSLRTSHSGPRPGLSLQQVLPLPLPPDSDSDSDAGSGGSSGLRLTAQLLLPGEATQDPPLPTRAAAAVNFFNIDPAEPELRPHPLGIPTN
pKi: −log10 of the molar value.
quantity kind: pKi

Here's what some known entries look like.
>  <smiles string>
CN1CCN(c2nc(N)nc(Cc3cccc(Cl)c3)n2)CC1

>  <system>
5-hydroxytryptamine receptor 6 (Homo sapiens, UniProt P50406)

>  <pKi>
7.55

$$$$
>  <smiles string>
CN1CCN(c2nc(N)nc(Cc3c[nH]c4ccccc34)n2)CC1

>  <system>
5-hydroxytryptamine receptor 6 (Homo sapiens, UniProt P50406)

>  <pKi>
7.66

$$$$

[A] CN1CCN(c2nc(N)nc(Cc3cccc4ccccc34)n2)CC1
[B] CN1CCN(c2nc(N)nc(Cc3ccc(Cl)c(Cl)c3)n2)CC1
Data request: Out of A and B , name the one with the higher pKi. Which one? Tell me its label.
Data returned: A
(A: 7.70, B: 7.49)

[a] CN1CCN(c2nc(N)nc(Cc3ccncc3)n2)CC1
[b] CN1CCN(c2nc(N)nc(Cc3ccc(F)cc3)n2)CC1
[c] CN1CCN(c2nc(N)nc(Cc3cccs3)n2)CC1
Data request: I would appreciate it if you could sort these 3 compounds by pKi, starting from the smallest number. Form entry: ranked labels (order as requested).
Data returned: a, c, b
(a: 5.74, c: 6.52, b: 7.00)
